# TEST METHOD NOTES: THU clinical pharmacokinetics, oral 750 mg in healthy volunteers
# ASSAY SETUP: male, human, in vivo
MEASURED PARAMETER: Tmax

Can you share its Tmax? I mean this compound: O=C1NC(O)CCN1[C@@H]1O[C@H](CO)[C@@H](O)[C@H]1O (stereo partly shown) [THU, tetrahydrouridine] ~3 h
